Each recorded value in this set is attributed to patent USRE47150.

Could you please report measured Improvement for the items listed next?
Tested target: T1, mouse tissue factor pathway inhibitor (TFPI) (mouse, UniProt O54819 29-289, limits assumed)
T1 construct: bought; also called mTFPI; murine TFPI
T1 sequence (looked up): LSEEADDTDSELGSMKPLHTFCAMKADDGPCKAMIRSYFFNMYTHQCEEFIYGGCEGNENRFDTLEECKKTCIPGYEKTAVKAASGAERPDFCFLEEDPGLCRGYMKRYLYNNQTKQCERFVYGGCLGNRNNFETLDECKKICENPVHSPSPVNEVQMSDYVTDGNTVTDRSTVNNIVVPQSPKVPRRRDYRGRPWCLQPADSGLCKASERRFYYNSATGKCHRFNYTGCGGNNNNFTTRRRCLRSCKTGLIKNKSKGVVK
Test description: SPR, TFPI immobilized
# unit: fold | format: bare number

Find the recorded Improvement belonging to 4B7 HC_D62R (Fab, V domains shown, also called 4B7-D62R) VH: QVQLQQSGPGLVKPSQTLSLTCAISGDSVSSNSAAWSWIRQSPGRGLEWLGIIYKRSKWYNRYAVSVKSRITINPDTSKNQFSLQLNSVTPEDTAVYYCARWHSDKHWGFDYWGQGTLVTVSS VL: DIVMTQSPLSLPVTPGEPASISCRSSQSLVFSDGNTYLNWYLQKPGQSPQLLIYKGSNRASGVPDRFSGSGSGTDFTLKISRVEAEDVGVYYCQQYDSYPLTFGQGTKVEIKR and report it. 137

Again, but for 4B7 wild-type Fab (Fab, V domains shown, Fab with HA (or c-myc) and 6xHis tag at the C-terminus of the heavy chain; also called 4B7wt; parental 4B7) VH: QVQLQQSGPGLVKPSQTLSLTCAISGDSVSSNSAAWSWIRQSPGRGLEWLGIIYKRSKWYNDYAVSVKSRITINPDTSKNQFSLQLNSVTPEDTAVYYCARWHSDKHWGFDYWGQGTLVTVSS VL: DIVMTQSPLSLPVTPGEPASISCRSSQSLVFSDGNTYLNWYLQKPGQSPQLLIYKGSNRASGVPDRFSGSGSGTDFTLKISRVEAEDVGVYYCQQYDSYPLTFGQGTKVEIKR 1

Again, but for 2A8 HC_S54F (Fab, V domains shown, also called 2A8-7) VH: QVQLVESGGGLVQPGGSLRLSCAASGFTFRSYGMSWVRQAPGKGLEWVSSIRGFSSSTYYADSVKGRFTISRDNSKNTLYLQMNSLRAEDTAVYYCARKYRYWFDYWGQGTLVTVSS VL: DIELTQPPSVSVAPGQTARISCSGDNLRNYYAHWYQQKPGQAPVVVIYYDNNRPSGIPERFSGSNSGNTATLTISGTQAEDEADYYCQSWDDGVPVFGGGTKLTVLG 1.69
